Provenance of the data: ChEMBL document CHEMBL1777699

species on record: Rattus norvegicus; experiment: Unbound clearance in rat; format: ADME, organism-based; conditions: in vivo
parameter measured: CL free (L/h/kg)

> print(dat)
                                        mol  parameter.measured  reported.value
1  O=C(O)[C@@H]1C[C@H](Oc2ccc3c(c2)OCC3)CN1             CL free            6.66
2  Cl.O=C(O)[C@@H]1C[C@H](Oc2cccc(Cl)c2)CN1             CL free            2.46
3    O=C(O)[C@@H]1C[C@H](OCc2ccc(Cl)cc2)CN1             CL free            1.56
4  O=C(O)[C@@H]1C[C@H](Oc2ccc(Cl)c(F)c2)CN1             CL free            6.48
5     O=C(O)[C@@H]1C[C@H](Sc2cccc(Cl)c2)CN1             CL free            3.36

====

assay: Half life in rat; format: ADME, organism-based; conditions: in vivo
Entries annotated with measured half-life
parameter measured: half-life (min)

> print(dat)
                                        mol  output.unit  reported.value
1     O=C(O)[C@@H]1C[C@H](Sc2cccc(Cl)c2)CN1          min              18
2  O=C(O)[C@@H]1C[C@H](Oc2ccc3c(c2)OCC3)CN1          min              60
3  O=C(O)[C@@H]1C[C@H](Oc2ccc(Cl)c(F)c2)CN1          min              90
4  Cl.O=C(O)[C@@H]1C[C@H](Oc2cccc(Cl)c2)CN1          min              24
5    O=C(O)[C@@H]1C[C@H](OCc2ccc(Cl)cc2)CN1          min              24

====

Entries annotated with measured fraction unbound
assay: Plasma protein binding in human; type: ADME, cell-free; settings: read-out: PPB (converted)
parameter measured: fraction unbound

> print(dat)
                                        mol  parameter.measured  reported.value
1    O=C(O)[C@@H]1C[C@H](OCc2ccc(Cl)cc2)CN1    fraction unbound            0.17
2     O=C(O)[C@@H]1C[C@H](Sc2cccc(Cl)c2)CN1    fraction unbound            0.16
3  O=C(O)[C@@H]1C[C@H](Oc2ccc3c(c2)OCC3)CN1    fraction unbound            0.11
4  O=C(O)[C@@H]1C[C@H](Oc2ccc(Cl)c(F)c2)CN1    fraction unbound            0.05
5  Cl.O=C(O)[C@@H]1C[C@H](Oc2cccc(Cl)c2)CN1    fraction unbound            0.07

====

Entries annotated with measured pIC50
assay: Displacement of [3H]gabapentin from voltage gated calcium channel alpha2delta from pig cerebral cortex by scintillation counting; assay type: tissue-based, Sus scrofa
pIC50: −log10 of the molar value.
parameter measured: pIC50

> print(dat)
                                    compound  relation.qualifier  reported.value
 1     O=C(O)[C@H]1C[C@@H](Oc2ccc(Cl)cc2)CN1                   <            5.00
 2  C[C@@]1(C(=O)O)C[C@H](Oc2cccc(Cl)c2)CN1 (stereo in doubt; 37)                   <            5.00
 3                   O=C(O)CNCCOc1ccc(Cl)cc1                   <            5.10
 4    O=C(O)[C@@H]1C[C@H](OCc2cccc(Cl)c2)CN1                   =            7.85
 5     O=C(O)[C@@H]1C[C@H](Sc2ccc(Cl)cc2)CN1                   =            7.14
 6  CCCN1C[C@@H](Oc2cccc(Cl)c2)C[C@H]1C(=O)O                   <            6.00
 7  CCC(C)O[C@@H]1CN[C@H](C(=O)O)C1 (some centres not stated)                   =            6.57
 8         O=C(O)[C@@H]1C[C@H](Oc2ccccc2)CN1                   =            6.99
 9  O=C(O)[C@@H]1C[C@H](Oc2ccc(OC(F)(F)F)cc2)CN1                   =            5.77
10     O=C(O)[C@@H]1C[C@H](Oc2ccc(Cl)cc2)CN1                   =            7.49
11  O=C(O)[C@@H]1C[C@H](Oc2ccc3c(c2)OCC3)CN1                   =            7.96
12    O=C(O)[C@@H]1C[C@H](OCc2ccc(Cl)cc2)CN1                   =            7.32
